- Test system: L1210 leukemia ip in BDF1 mice, survival T/C
- protocol: NCI In Vivo Anticancer Drug Screen. Data for tumor model L1210 Leukemia (intraperitoneal) in B6D2F1 (BDF1) mice
- condition.set: endpoint: mean survival time; dose: 200.0 mg/kg/injection; schedule: Q01DX009 (ip); vehicle: saline with Tween-80; higher = longer survival
Toxic doses and inconclusive results are not listed.
measured.property: T/C

These solved cases illustrate the format of a correct answer.
C[C@]12CCCC[C@@H]1CC[C@@H]1[C@@H]2[C@@H](O)C[C@]2(C)[C@@H](O)CC[C@@H]12 : 95 % of control
C=CCOC(=N)c1ccccc1 : 91 % of control
COc1ccc(CNCCNCCNCc2ccc(OC)cc2)cc1 : 109 % of control
NS(=O)(=O)c1cc[n+]([O-])c2ccccc12 : 94 % of control
CC(=O)NS(=O)(=O)c1ccc(NC(=O)c2ccccc2C(=O)O)cc1 : 96 % of control

Kindly review the next molecule as well.
IN: Look up and report measured T/C for this entry: `Cc1ccc2c(c1)nc1c3ccccc3nc(-c3ccccc3N)n21`
OUT: 87 % of control
